tested on: P. falciparum stage V gametocytes; parameters: BacTiter-Glo ATP luminescence viability of purified stage V gametocytes in 384-well plates, per cent inhibition versus DMSO; conditions: 48 h, 5 µM; inhibitor
The campaign covered roughly 13,000 compounds. About 3,200 (25%) showed an effect of 50% or more. The list shows a part of the results.
measured-attribute: % Inhibition (%)
The response must be a number in % with no trailing unit.

# compound, endpoint-value
rows = [
    ("Cc1cccc(Nc2nc(C)cc(N3CCCN(CC4CCCCC4)CC3)n2)c1 [TCMDC-137025]", -12.77),
    ("O=C(Nc1cc(Cl)cc(Cl)c1)Nc1ccnc2ccccc12 [TCMDC-139375]", 74.86),
    ("CCCOc1cc(NC(=O)Nc2ccnc3ccccc23)cc(OCCC)c1 [TCMDC-139491]", 3.955),
]

Which % Inhibition reading was recorded for the compound COc1cc(NC(=O)Nc2ccnc3ccccc23)cc(OC)c1 [TCMDC-139446] ?
84.12

// next record CN(C)c1ccnc2ccc(NC(=O)Nc3ccnc4ccccc34)cc12 [TCMDC-139749]
70.09

Field entry: O=C(CCc1cccnc1)Nc1cccc(-c2ccc(-c3nc4ccc(C(F)(F)F)cc4[nH]3)cc2)c1 [TCMDC-132148]
-27.41

Request: COc1cc(NC(=O)Nc2cc(C)nc3ccccc23)cc(OC)c1 [TCMDC-139821]
78.53

Request: COc1ccc(NC(=O)Nc2cc(C)nc3ccccc23)cc1Cl [TCMDC-139820]
-57.55

For CCOc1cc(NC(=O)Nc2ccnc3ccccc23)cc(OC)c1 [TCMDC-139788] then?
14.31

====

Parameter: % Inhibition. Scope: all listed entries.
tested on: P. falciparum stage V gametocytes; design: BacTiter-Glo ATP luminescence viability of purified stage V gametocytes in 384-well plates, per cent inhibition versus DMSO; details: 48 h, 5 µM; inhibitor
Among all 13,000 compounds or so, about 3,200 (25%) showed an effect of 50% or more. The list shows a part of the results.
Express the result in % but write the number alone.

Could you share which % Inhibition value was measured for c1ccc(CCNCc2ccc(-c3ccc(CNCc4ccc5c(c4)OCO5)cc3)nc2)cc1 [TCMDC-141648] ?
21

Thanks! And Nc1nc(N)c2c(Cl)c(N(Cc3ccccc3)Cc3ccccc3)ccc2n1 [TCMDC-137993] ?
-38.99

Follow-up item: CCCN(CC1CC1)c1nc(C)nc2c(-c3ccccc3)cc(C)cc12 [TCMDC-138123]
91.17

Would you kindly repeat that for O=C(Nc1cccc(-c2ccc(-c3nc4ccc(F)cc4[nH]3)cc2)c1)Nc1ccc(F)c(F)c1F [TCMDC-133231] ?
-4.749

Try this compound too: CCCN(CC1CC1)c1ncc(-c2cccc(CNCc3ccccc3O)c2)cn1 [TCMDC-133138]
6.014

Another compound to check: CO/C(=C\C=C\c1cc2cc(Cl)c(Cl)cc2[nH]1)C(=O)NCCCN1CCN(c2cccc(O)c2)CC1 [TCMDC-139248]
6.724

Proceed to CN(C)c1cc(C(=O)N[C@@H](Cc2ccccc2)[C@H](O)CNC2CCCCC2)cc2[nH]ccc12 [TCMDC-136317]
-94.17

Also CC(C)N1CCN(c2ccc(OCCCCN3CCN(c4cccc(Cl)c4Cl)CC3)c(C(F)(F)F)c2)CC1 [TCMDC-136646] ?
-6.976

// repeat for CC(C)Cn1c(Sc2ccc(C#N)c([N+](=O)[O-])c2)nnc1-c1cccs1 [TCMDC-135575] and report
26.53

Try this compound next: Oc1ccc(CCNCCCCCCNCCc2ccc(Br)cc2)cc1O [TCMDC-131263]
95.59

And then CC(=O)c1c[nH]c(C(=O)Nc2ccc(-c3cn4ccccc4n3)cc2)c1 [TCMDC-124599] , what is it?
36.18

Can you check COc1ccc(C2CC(c3cccs3)=NN2C(=O)COc2cccc3c2CCCC3O)cc1OC (centres unmarked) [TCMDC-125033] next?
11.22

Next up: COc1cc(NC(=O)CCCN2CCN(c3cccc(Cl)c3Cl)CC2)ccc1N1CCN(C(C)C)CC1 [TCMDC-136697]
87.5

Moving on to the next compound: Cc1ccc(Nc2nccc(NCC(O)c3ccc(C(F)(F)F)cc3)n2)cc1 (centres unmarked) [TCMDC-136593]
10.35

Try this compound next: CCCN(CCC)C(=O)c1cc(-c2cccc(C)c2)nc2ccccc12 [TCMDC-124452]
-15.82

Would you kindly repeat that for Clc1ccc2c(NCc3ccc4c(c3)OCO4)ccnc2c1 [TCMDC-125106] ?
-11.41

Now give it for Cc1cc(N(C)C2CCN(CC3CCCCC3)C2)nc(Nc2ccc(Br)cc2)n1 (centres unmarked) [TCMDC-137023] too.
-48.72

====

test system: P. falciparum stage V gametocytes; parameters: BacTiter-Glo ATP luminescence viability of purified stage V gametocytes in 384-well plates, per cent inhibition versus DMSO; conditions: 48 h, 5 µM; inhibitor
The whole screen tested about 13,000 compounds, of which about 3,200 (25%) showed an effect of 50% or more. The list shows a part of the results.
Recorded % Inhibition, one value per entry.
Kindly provide the numeric value in % only, without the unit symbol.

# compound, % Inhibition, %
data = [
    ("CCCCNc1cc(C)nc(NCc2ccccc2)n1 [TCMDC-123663]", 33.56),
]

Field: % Inhibition (P. falciparum stage V gametocytes). Entry: Cc1nc(NC2=NCN(CCCN3CCOCC3)CN2)nc2c(C)cccc12 [TCMDC-125086]
47.98

Ok, now CC1(C)N=C(N)N=C(N)N1OCCOc1cccc(C(F)(F)F)c1 [TCMDC-131615]
4.099

For N#Cc1ccc(NC(=NC2CCN(Cc3ccccc3)CC2)Nc2ccccc2Cl)c(O)c1 [TCMDC-140256] then?
-5.798

Can you handle C=C[C@H]1CN2CC[C@H]1C[C@@H]2[C@@H](O)c1ccnc2ccccc12 [TCMDC-123933] next?
7.627

====

% Inhibition values for the molecules below.
test system: P. falciparum stage V gametocytes; set-up: BacTiter-Glo ATP luminescence viability of purified stage V gametocytes in 384-well plates, per cent inhibition versus DMSO; settings: 48 h, 5 µM; inhibitor
Hit rate of the full screen: of about 13,000 compounds, about 3,200 (25%) showed an effect of 50% or more. The list shows a part of the results.
Dear colleague, please return just the value in %, with no unit written.

Past entries and their recorded results:
# molecule, result-units, % Inhibition
data = [
    ("COc1cc(NCC(CN)Cc2ccc3c(c2)OCO3)nc2ccccc12.Cl (stereo not drawn)", "%", 69.08),
    ("CC(CNC(=O)C(c1cc2ccccc2o1)N1CCN(C(c2ccccc2)c2ccccc2)CC1)c1ccccc1 (stereo not drawn)", "%", 11.08),
    ("Cc1cc(C)c(C(=O)Nc2n[nH]c3nnc(-c4cccc(F)c4F)cc23)c(C)c1", "%", 6.955),
]

Which % Inhibition is listed for CC(C)(CNC(=O)[C@@H]1CCCN(CCOc2ccc(Cl)cc2)C1)c1nc(-c2ccc(Cl)c(O)c2)c(-c2ccncc2)[nH]1 ?
7.649

Check NC(Cc1cccc(I)c1)C(=O)NCC1CCCO1 (stereo not drawn) too.
-21.09

How about CC(C)CCN1CCC(Oc2ccc(NC(=O)c3ccc4ncccc4c3)cc2Cl)C1 (stereo not drawn) ?
6.933

Now consider CS(=O)(=O)CCNCc1nc(-c2ccc3ncnc(Nc4ccc(OCc5ccccc5)c(Cl)c4)c3c2)cs1 and answer again.
-10.86

What do we get for Cc1nc(NCc2ccccc2)cc(NCC(O)c2ccc(O)cc2)n1 (stereo not drawn) ?
19.67

====

test system: P. falciparum stage V gametocytes; parameters: BacTiter-Glo ATP luminescence viability of purified stage V gametocytes in 384-well plates, per cent inhibition versus DMSO; conditions: 48 h, 5 µM; inhibitor
In all, about 13,000 compounds went through this assay and about 3,200 (25%) showed an effect of 50% or more. The list shows a part of the results.
Catalogue of % Inhibition values
Form entry: value (%) — number only.

# count of solved cases: 3
# compound, % Inhibition (%)
measured = [
    ("Cc1cccc(CNc2nc(C)cc(N[C@@H](Cc3ccccc3)C(=O)NCCOc3ccccc3)n2)c1 [TCMDC-134888]", 18.91),
    ("O=C(c1cc(C(F)(F)F)cc(C(F)(F)F)c1)N1CCC(CCN2CCC3(CC2)C(=O)NCN3c2ccccc2)CC1Cc1ccc(Cl)c(Cl)c1 (stereo not shown) [TCMDC-141945]", -34.22),
    ("Cc1cccc2[nH]c(-c3cccc(-c4cccc(NC(=O)c5ccc(C(N)=O)cc5)c4)c3)nc12 [TCMDC-132192]", -7.489),
]

Which % Inhibition reading was recorded for the compound O=C(Cc1cccc(Cl)c1)Nc1cccc(-c2c[nH]c3nc(Nc4cccc(O)c4)ncc23)c1 [TCMDC-134681] ?
-6.738

Subsequent entry: CC1(C)N=C(N)N=C(N)N1OCCCOc1ccccc1Cl [TCMDC-131739]
-0.9938

And for O=C(CC1CCCC1)N(Cc1ccc(-c2ccc(CNC3Cc4ccccc4C3)cc2)cc1)CC1CCCCN1 (stereo not shown) [TCMDC-141446] ?
118.1

And for COc1ccc(C(=O)N[C@@H](CC(C)C)C(=O)NC2CC[C@@H](C)N(C(=O)Nc3ccc(Cl)cc3)CC2=O)cc1OCCN1CCOCC1 (stereo partly shown) [TCMDC-134276] ?
-74.97

And what about the compound CCC(C)(C)c1ccc2nc(N)nc(N)c2c1C [TCMDC-137829] ?
-16.15

Let us now turn to O=c1ccc2ncc(Cl)c3c2n1CC3CN1CCC(NCc2cc3c(cn2)OCCO3)CC1 (stereo not shown) [TCMDC-135967]
20.98

Request: Cc1cc(N[C@@H](CC(C)C)C(=O)NCCOc2ccccc2)nc(NCCc2ccccc2)n1 [TCMDC-134871]
94.75

Try the compound COc1cc2nc(SCCCC#N)n(C3CCCCCC3)c(=N)c2cc1OC [TCMDC-123768]
60.07

Entry O=C(Nc1ccc2nc3n(c(=O)c2c1)CCCCC3)C(=O)N1CCN(c2ccc(F)cc2)CC1 [TCMDC-125293] please
-18.55

And then CCOC(=O)c1[nH]c2ccc(F)cc2c1NC(=O)CN1CCN(c2cccc(C(F)(F)F)c2)CC1 [TCMDC-124048] , what is it?
-41.18

Now this one: CN(CCCc1c[nH]c2ccccc12)CCC1CCC(NC(=O)/C=C/c2ccc(Cl)c(Cl)c2)CC1 (stereo not shown) [TCMDC-139449]
-10.77

Same question, CC(=O)N(C)c1cccc(C(=O)Nc2cccc(-c3ccc(-c4nc5ccc(C(F)(F)F)cc5[nH]4)cc3)c2)c1 [TCMDC-137073] this time
81.14

Please do the same for O=C(NC1CCN(c2ncc(C(F)(F)F)cc2Cl)CC1)c1cccs1 [TCMDC-133802] as well.
15.64

Also CN1CC=C(c2c[nH]c3ccc(C(=O)c4nccs4)cc23)CC1 [TCMDC-137277] , if possible.
17.28

Field entry: CS(=O)(=O)c1ccc(OCCCN(Cc2ccccc2C(F)(F)F)c2ccc(C#N)c(C(F)(F)F)c2)cc1 [TCMDC-135467]
19.91

What do you get for Cc1cc(N[C@@H](Cc2ccccc2)C(=O)NCCOc2ccccc2)nc(NCCc2ccc(F)cc2)n1 [TCMDC-134789] ?
64.78
